# Test system: Leishmania donovani
# procedureDetails: Antileishmanial activity against Leishmania donovani (MHOM/IN/Dd8) amastigote infected in mouse J774 cells assessed as after 72 hrs by luminometry at 40 ug/ml
# Format: functional, organism-based
The source made the active and inactive calls. The calls are words filed in the database; no cut-off is given here.
property: Activity

                                 chemsmiles                  tgt  reportedmeasurement
0  Cc1cc(Sc2nnc3c4ccccc4n(C)c3n2)nc(NCCN(C)C)n1  Leishmania donovani             inactive
1  CCCCNc1nc(NCCCC)nc(Sc2nnc3c4ccccc4n(C)c3n2)n1  Leishmania donovani             inactive
2  CCN(CC)CCNc1nc(C)cc(Sc2nnc3c4ccccc4n(C)c3n2)n1  Leishmania donovani             inactive
3  Cc1cc(Sc2nnc3c4ccccc4n(C)c3n2)nc(NCCCN2CCOCC2)n1  Leishmania donovani             inactive
4  Cn1c2ccccc2c2nnc(Sc3nc(NC(C)(C)C)nc(NC(C)(C)C)n3)nc21  Leishmania donovani             inactive
5  Cn1c2ccccc2c2nnc(Sc3nc(NCCN4CCOCC4)nc(NCCN4CCOCC4)n3)nc21  Leishmania donovani             inactive
